The origin of these recorded values is patent US7087622B2.

# Tested on: SPI1 type III protein secretion system (SipB secretion)
# assayMethodText: Secondary assay: Type III-dependent protein secretion of the SipB polypeptide by S. enterica (immunoblot)
# Assay type: cell-based
# conditionInfo: Salmonella enterica, read-out: SipB IC50(uM)
Could you please mark t for values of IC50 below 60 µM and f for values at or above it?

compound="O=C(Nc1cc(-c2cccc3ccccc23)cn(C(Cc2ccc(Cl)cc2)C(=O)O)c1=O)c1ccc(-c2ccccc2)cc1 (stereo not shown)" class=f
compound="O=C(Nc1cc(-c2ccc(C(F)(F)F)cc2)cn(C(Cc2ccc(Cl)cc2)C(=O)O)c1=O)c1ccc(-c2ccccc2)cc1 (stereo not shown)" class=t
compound="O=C(Nc1cc(-c2ccc3ccccc3c2)cn(C(Cc2ccc(Cl)cc2)C(=O)O)c1=O)c1ccc(-c2ccccc2)cc1 (stereo not shown)" class=f
compound="O=C(Nc1cc(C#Cc2ccccc2)cn(C(Cc2ccc(Cl)cc2)C(=O)O)c1=O)c1ccc(C(F)(F)F)cc1 (stereo not shown)" class=f
compound="O=C(Nc1cc(-c2ccc(Oc3ccccc3)cc2)cn(C(Cc2ccc(Cl)cc2)C(=O)O)c1=O)c1ccc(-c2ccccc2)cc1 (stereo not shown)" class=t
compound="O=C(Nc1cc(-c2cccc3c2sc2ccccc23)cn(C(Cc2ccc(Cl)cc2)C(=O)O)c1=O)c1ccc(C(F)(F)F)cc1 (stereo not shown)" class=f

* * *

Listing of recorded IC50 by entry.
# Test system: SPI1 type III protein secretion system (SipB secretion)
# assayMethodText: Secondary assay: Type III-dependent protein secretion of the SipB polypeptide by S. enterica (immunoblot)
# Format: cell-based
# conditionInfo: Salmonella enterica, read-out: SipB IC50(uM)
assayReadout: IC50

compound="O=C(Nc1cc(-c2ccsc2)cn(C(Cc2ccc(Cl)cc2)C(=O)O)c1=O)c1ccc(-c2ccccc2)cc1 (stereo not shown)" reportedvalue="> 100 µM"
compound="O=C(Nc1cc(-c2ccc(O)cc2)cn(C(Cc2ccc(Cl)cc2)C(=O)O)c1=O)c1ccc(C(F)(F)F)cc1 (stereo not shown)" reportedvalue="> 100 µM"
compound=O=C(Nc1cc(-c2ccc(Oc3ccccc3)cc2)cn([C@@H](COCc2ccccc2)C(=O)O)c1=O)c1ccc(C(F)(F)F)cc1 reportedvalue="26.2 µM"
compound="O=C(Nc1cc(-c2ccoc2)cn(C(Cc2ccc(Cl)cc2)C(=O)O)c1=O)c1ccc(-c2ccccc2)cc1 (stereo not shown)" reportedvalue="> 100 µM"

* * *

# Test system: type III protein secretion system of P. aeruginosa PA103 (ExoU secretion)
# assayMethodText: Tertiary assay: Type III-dependent secretion of ExoU by P. aeruginosa PA103 (SDS-PAGE band quantitation)
# Type: cell-based
# conditionInfo: Pseudomonas aeruginosa, ExoU secreted into extracellular medium
pIC50: −log10 of the molar value.
Measured pIC50 by item
assayReadout: pIC50

compound="O=C(Nc1cc(-c2cccc3ccccc23)cn([C@@H](COCc2ccccc2)C(=O)O)c1=O)c1ccc(C(F)(F)F)cc1 [Compound 8]" reportedvalue="< 4.00"
compound="O=C(Nc1cc(-c2ccc(Cl)cc2)cn(C(Cc2ccc(Cl)cc2)C(=O)O)c1=O)c1ccc(-c2ccccc2)cc1 (stereo not shown) [Compound 33]" reportedvalue="< 4.30"
compound="O=C(Nc1cc(-c2ccccc2Oc2ccccc2)cn([C@@H](COCc2ccccc2)C(=O)O)c1=O)c1ccc(C(F)(F)F)cc1 [Compound 10]" reportedvalue="< 4.00"
compound="O=C(Nc1cc(-c2cccc(O)c2)cn(C(Cc2ccc(Cl)cc2)C(=O)O)c1=O)c1ccc(C(F)(F)F)cc1 (stereo not shown) [Compound 30]" reportedvalue="< 4.00"
compound="COC(=O)c1ccc(-c2cc(NC(=O)c3ccc(C(F)(F)F)cc3)c(=O)n([C@@H](Cc3ccccc3)C(=O)O)c2)cc1 [Compound 6]" reportedvalue="< 4.00"
compound="O=C(Nc1cc(-c2ccc(O)cc2)cn(C(Cc2ccc(Cl)cc2)C(=O)O)c1=O)c1ccc(-c2ccccc2)cc1 (stereo not shown) [Compound 39]" reportedvalue=4.09
compound="CN(C)c1ccc(-c2cc(NC(=O)c3ccc(-c4ccccc4)cc3)c(=O)n(C(Cc3ccc(Cl)cc3)C(=O)O)c2)cc1 (stereo not shown) [Compound 40]" reportedvalue=4.25

* * *

# Tested on: type III protein secretion system of P. aeruginosa PA103 (ExoU secretion)
# assayMethodText: Tertiary assay: Type III-dependent secretion of ExoU by P. aeruginosa PA103 (SDS-PAGE band quantitation)
# Assay type: cell-based
# conditionInfo: Pseudomonas aeruginosa, ExoU secreted into extracellular medium
# Text: Tertiary assay: inhibition of Type III protein secretion of effectors from a Pseudomonas aeruginosa system. Type III protein secretion is used by P. aeruginosa to secrete several essential virulence determinants. […] The amount of Type III-dependent secretion of ExoU by P. aeruginosa PA103 can be determined in a cell-based assay by quantification of the 73.9 kDa ExoU protein secreted into the extracellular medium. […]
pIC50: −log10 of the molar value.
Items are presented alongside their recorded pIC50.
assayReadout: pIC50

molecule="O=C(Nc1cc(-c2ccoc2)cn(C(Cc2ccc(Cl)cc2)C(=O)O)c1=O)c1ccc(-c2ccccc2)cc1 (stereo not shown) [Compound 45]" targetdesc="type III protein secretion system of P. aeruginosa PA103 (ExoU secretion)" assayreadout=pIC50 valuecomparator== reportedvalue=4.31
molecule="O=C(Nc1cc(-c2cccs2)cn(C(Cc2ccc(Cl)cc2)C(=O)O)c1=O)c1ccc(-c2ccccc2)cc1 (stereo not shown) [Compound 50]" targetdesc="type III protein secretion system of P. aeruginosa PA103 (ExoU secretion)" assayreadout=pIC50 valuecomparator== reportedvalue=4.29
molecule="O=C(Nc1cc(-c2ccc(Oc3ccccc3)cc2)cn(C(CSCc2ccccc2)C(=O)O)c1=O)c1ccc(C(F)(F)F)cc1 (stereo in doubt) [Compound 15]" targetdesc="type III protein secretion system of P. aeruginosa PA103 (ExoU secretion)" assayreadout=pIC50 valuecomparator== reportedvalue=4.08
molecule="O=C(Nc1cc(-c2ccc(-c3ccccc3)cc2)cn(C(Cc2ccc(Cl)cc2)C(=O)O)c1=O)c1ccc(-c2ccccc2)cc1 (stereo not shown) [Compound 47]" targetdesc="type III protein secretion system of P. aeruginosa PA103 (ExoU secretion)" assayreadout=pIC50 valuecomparator== reportedvalue=4.40
molecule="O=C(Nc1cc(-c2ccsc2)cn(C(Cc2ccc(Cl)cc2)C(=O)O)c1=O)c1ccc(-c2ccccc2)cc1 (stereo not shown) [Compound 44]" targetdesc="type III protein secretion system of P. aeruginosa PA103 (ExoU secretion)" assayreadout=pIC50 valuecomparator=< reportedvalue=4.00
molecule="O=C(Nc1cc(-c2ccc(Cl)c(Cl)c2)cn(C(Cc2ccc(Cl)cc2)C(=O)O)c1=O)c1ccc(C(F)(F)F)cc1 (stereo not shown) [Compound 20]" targetdesc="type III protein secretion system of P. aeruginosa PA103 (ExoU secretion)" assayreadout=pIC50 valuecomparator=< reportedvalue=4.00
molecule="O=C(Nc1cc(-c2ccc3[nH]ccc3c2)cn(C(Cc2ccc(Cl)cc2)C(=O)O)c1=O)c1ccc(-c2ccccc2)cc1 (stereo not shown) [Compound 43]" targetdesc="type III protein secretion system of P. aeruginosa PA103 (ExoU secretion)" assayreadout=pIC50 valuecomparator== reportedvalue=4.55
molecule="O=C(Nc1cc(-c2ccc(Oc3ccccc3)cc2)cn([C@@H](Cc2ccccc2)C(=O)O)c1=O)c1ccc(C(F)(F)F)cc1 [Compound 4]" targetdesc="type III protein secretion system of P. aeruginosa PA103 (ExoU secretion)" assayreadout=pIC50 valuecomparator== reportedvalue=4.07
molecule="O=C(Nc1cc(-c2ccc(Oc3ccccc3)cc2)cn([C@@H](COCc2ccccc2)C(=O)O)c1=O)c1ccc(C(F)(F)F)cc1 [Compound 9]" targetdesc="type III protein secretion system of P. aeruginosa PA103 (ExoU secretion)" assayreadout=pIC50 valuecomparator=< reportedvalue=4.00
molecule="COc1ccc(-c2cc(NC(=O)c3ccc(-c4ccccc4)cc3)c(=O)n(C(Cc3ccc(Cl)cc3)C(=O)O)c2)cc1OC (stereo not shown) [Compound 41]" targetdesc="type III protein secretion system of P. aeruginosa PA103 (ExoU secretion)" assayreadout=pIC50 valuecomparator== reportedvalue=4.17
molecule="O=C(Nc1cc(-c2cccc(C(F)(F)F)c2)cn(C(Cc2ccc(Cl)cc2)C(=O)O)c1=O)c1ccc(-c2ccccc2)cc1 (stereo not shown) [Compound 22]" targetdesc="type III protein secretion system of P. aeruginosa PA103 (ExoU secretion)" assayreadout=pIC50 valuecomparator=< reportedvalue=4.00
molecule="CN(C)c1ccc(-c2cc(NC(=O)c3ccc(Oc4ccccc4)cc3)c(=O)n(C(Cc3ccc(Cl)cc3)C(=O)O)c2)cc1 (stereo not shown) [Compound 53]" targetdesc="type III protein secretion system of P. aeruginosa PA103 (ExoU secretion)" assayreadout=pIC50 valuecomparator== reportedvalue=4.31
molecule="O=C(Nc1cc(-c2ccc(F)cc2)cn(C(Cc2ccc(Cl)cc2)C(=O)O)c1=O)c1ccc(-c2ccccc2)cc1 (stereo not shown) [Compound 35]" targetdesc="type III protein secretion system of P. aeruginosa PA103 (ExoU secretion)" assayreadout=pIC50 valuecomparator== reportedvalue=5.12
